test: Metabolic stability in rat liver microsomes assessed as parent compound remaining at 0.5 uM after 10 mins; type: ADME, microsome; details: read-out: Stability
quantityKind: remaining at 10 min, 0.5 µM (%)

chemicalString	quantityKind	measValue
COc1ccc(-c2ccc(Oc3cccc4c3CCCC4)c(NC(=O)Nc3ccccc3F)c2)cc1C(=O)O	remaining at 10 min, 0.5 µM	72
COc1ccc(-c2ccc(Oc3cccc4c3CCCC4)c(NC(=O)Nc3cccc(C)c3)c2)cc1C(=O)O	remaining at 10 min, 0.5 µM	71
COc1ccc(-c2ccc(Oc3cccc4c3CCCC4)c(NC(=O)Nc3ccccc3)c2)cc1C(=O)O	remaining at 10 min, 0.5 µM	92
COc1ccc(-c2ccc(Oc3cccc4c3CCCC4)c(NC(=O)Nc3ccccc3Cl)c2)cc1C(=O)O	remaining at 10 min, 0.5 µM	83

P = COc1ccc(-c2ccc(Oc3cccc4c3CCCC4)c(NC(=O)Nc3ccc(C)cc3)c2)cc1C(=O)O
Q = COc1ccc(-c2ccc(Oc3cccc4c3CCCC4)c(NC(=O)Nc3ccccc3C)c2)cc1C(=O)O
Hey, which is lower on measured remaining at 10 min, 0.5 µM, P or Q ? State the label of the item chosen.
Q
(Q: 65%, P: 95%)

* * *

target: Indoleamine 2,3-dioxygenase 1 (Homo sapiens); assay: Inhibition of IDO1 in IFN-gamma stimulated human HeLa cells assessed as inhibition of kynurenine production preincubated with cells followed by IFN-gamma addition measured after 20 hrs; type: cell-based
Sequence (P14902 whole entry): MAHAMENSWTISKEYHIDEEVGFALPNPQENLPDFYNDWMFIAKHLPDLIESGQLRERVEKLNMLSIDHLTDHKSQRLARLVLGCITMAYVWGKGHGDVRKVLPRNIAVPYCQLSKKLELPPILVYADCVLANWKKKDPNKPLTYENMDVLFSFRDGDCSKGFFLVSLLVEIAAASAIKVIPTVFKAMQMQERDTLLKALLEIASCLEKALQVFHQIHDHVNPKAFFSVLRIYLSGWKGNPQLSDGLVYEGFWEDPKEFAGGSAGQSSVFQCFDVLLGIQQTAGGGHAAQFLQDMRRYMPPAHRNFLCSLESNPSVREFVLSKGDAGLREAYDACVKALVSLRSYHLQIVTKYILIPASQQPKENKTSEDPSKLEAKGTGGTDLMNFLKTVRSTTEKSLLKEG
quantityKind: IC50 (nM)

chemicalString	IC50 / nM
COc1ccc(-c2ccc(Oc3cccc4c3CCCC4)c(NC(=O)Nc3ccc(C)cc3)c2)cc1C(=O)O	100
COc1ccc(-c2ccc(Oc3ccccc3C#N)c(NC(=O)Nc3ccc(C)cc3)c2)cc1C(=O)O	6000
Cc1ccc(NC(=O)Nc2cc(-c3cccc(C(=O)O)c3F)ccc2Oc2ccccc2C(C)(C)C)cc1	4500
COc1ccc(-c2ccc(Oc3cccc4c3CCCC4)c(NC(=O)Nc3ccccc3Cl)c2)cc1C(=O)O	22
COc1ccc(-c2ccc(Oc3cccc4c3CCCC4)c(NC(=O)Nc3ccccc3)c2)cc1C(=O)O	62
COc1ccc(-c2ccc(Oc3ccccc3C(C)(C)C)c(NC(=O)Nc3ccc(C)cc3)c2)cc1C(=O)O	350
CC(C)(C)c1ccccc1Oc1ccc(-c2cccc(C(=O)O)c2)cc1NC(=O)Nc1ccccc1	1500
CC(C)(C)c1ccccc1Oc1ccc(-c2cccc(C(=O)O)c2)cc1NC(=O)Nc1ccc(OC(F)F)cc1	2600
Cc1ccc(NC(=O)Nc2cc(-c3cc(Cl)cc(C(=O)O)c3)ccc2Oc2ccccc2C(C)(C)C)cc1	250

a = COc1ccc(-c2ccc(Oc3cccc4c3CCCC4)c(NC(=O)Nc3ccccc3C)c2)cc1C(=O)O
b = COc1ccc(-c2ccc(Oc3ccccc3C(C)C)c(NC(=O)Nc3ccc(C)cc3)c2)cc1C(=O)O
c = Cc1ccccc1NC(=O)Nc1cc(-c2cccc(C(=O)O)c2)ccc1Oc1ccccc1C(C)(C)C
d = CC(C)(C)c1ccccc1Oc1ccc(-c2cccc(C(=O)O)c2)cc1NC(=O)Nc1ccc(OC(F)(F)F)cc1
e = COc1ccc(-c2ccc(Oc3ccccc3C(C)(C)CO)c(NC(=O)Nc3ccc(C)cc3)c2)cc1C(=O)O
Order the records by IC50, with each subsequent value no larger than the one before. # the answer lists labels in the order requested
d, e, c, b, a
(d: 4000 nM, e: 2400 nM, c: 1000 nM, b: 340 nM, a: 49 nM)

Entry source: ChEMBL document CHEMBL4000192
